# ASSAY_DETAILS: self-splicing fitness, log relative to wild type (ln ratio); higher = more splicing; Tetrahymena group I intron in knt gene, E. coli kanamycin selection, DiMSum; sequences stand for … in CUCUCU…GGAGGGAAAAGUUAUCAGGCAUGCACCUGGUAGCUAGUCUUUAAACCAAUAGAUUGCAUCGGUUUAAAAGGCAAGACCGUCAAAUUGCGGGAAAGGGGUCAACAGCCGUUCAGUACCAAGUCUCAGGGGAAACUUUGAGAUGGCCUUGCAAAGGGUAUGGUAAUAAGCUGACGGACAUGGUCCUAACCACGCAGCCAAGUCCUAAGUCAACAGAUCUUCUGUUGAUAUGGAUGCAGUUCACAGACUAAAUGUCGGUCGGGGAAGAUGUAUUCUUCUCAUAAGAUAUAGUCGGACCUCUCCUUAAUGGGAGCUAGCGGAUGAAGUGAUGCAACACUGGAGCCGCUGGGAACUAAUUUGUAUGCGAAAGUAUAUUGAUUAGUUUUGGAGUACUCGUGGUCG;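 also: selection with 25 µg/mL kanamycin versus none on LB agar overnight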
# CONDITION_SET: 30 °C
Label Not fulfilled if self-splicing fitness (ln) falls below -2; label Fulfilled in every other case.

self-splicing fitness (ln) >= -2 for GCCCAGCAAUAUUACGUGGA ?
Fulfilled

hey, is self-splicing fitness (ln) for this one >= -2? AAUAAGCAAUAUUACGGCAA
Fulfilled

I'd appreciate it if you could say whether CCUCAGCAAUAUUACGAGGU has self-splicing fitness (ln) at least equal to -2.
Not fulfilled

Say whether AGGAAGCAAUAUUACGCGAC shows self-splicing fitness (ln) of -2 or more.
Not fulfilled

Threshold query (self-splicing fitness (ln) >= -2) on CUUGAGCAAUAUUACGUCGC
Not fulfilled

Is the recorded value of self-splicing fitness (ln) equal to or greater than -2 for this sequence? AGGGAGCAAUAUUACGUUAG
Not fulfilled

Reported self-splicing fitness (ln) reaches at least -2 for ACUCAGCAAUAUUACGCCUA ?
Fulfilled

Please tell me: is the sequence UGCCAGCAAUAUUACGGUGC at or over -2 in terms of self-splicing fitness (ln)?
Not fulfilled

// inclusive: self-splicing fitness (ln) at least -2? input: AAGAAGCAAUAUUACGGCCU
Fulfilled

State whether the measured self-splicing fitness (ln) reaches -2, counting equality as reaching it, for GUCUAGCAAUAUUACGUCUC
Fulfilled

Given UUUCAGCAAUAUUACGUCUC , state whether its self-splicing fitness (ln) is at least -2.
Not fulfilled

API: above_or_equal(metric=self-splicing fitness (ln), cutoff=-2) for item GUACAGCAAUAUUACGGACG
Not fulfilled

Check this sequence for self-splicing fitness (ln) at or above -2: AAGAAGCAAUAUUACGAGAU
Not fulfilled

Textbook exercise: given the entry UUUAAGCAAUAUUACGUCUG , state whether its self-splicing fitness (ln) is greater than or equal to -2.
Fulfilled

Would you say AUUCAGCAAUAUUACGAAUU shows self-splicing fitness (ln) at minimum -2?
Not fulfilled
